The entries below are paired with their reported IC50.
Target: trypsin-activated recombinant human renin (Homo sapiens)
Sequence (P00797 67-406): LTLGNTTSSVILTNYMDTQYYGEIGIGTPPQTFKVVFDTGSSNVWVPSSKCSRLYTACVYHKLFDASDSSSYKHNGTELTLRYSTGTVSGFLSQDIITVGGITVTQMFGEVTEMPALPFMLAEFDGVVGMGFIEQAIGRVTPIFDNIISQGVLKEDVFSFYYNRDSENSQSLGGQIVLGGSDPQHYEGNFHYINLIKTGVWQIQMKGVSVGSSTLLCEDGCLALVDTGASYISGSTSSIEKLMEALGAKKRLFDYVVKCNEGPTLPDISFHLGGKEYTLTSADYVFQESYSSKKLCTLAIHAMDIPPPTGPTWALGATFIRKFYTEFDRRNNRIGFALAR
Assay: Renin fluorescence assay (internally quenched peptide substrate)
Assay type: biochemical
Conditions: compounds I*

Sample records with IC50:
CNC[C@H](CC1CCCCC1)NC(=O)N1CCC[C@@H]([C@@H](OCCNC(=O)OC)c2cc(F)cc(F)c2O)C1 [I*-114a]
< 10 nM
CNC[C@H](CC1CCCCC1)NC(=O)N1CCC[C@@H]([C@@H](OCCNC(=O)OC)c2cc(F)cc(F)c2)C1 [I*-64a]
< 1 nM
CCNC(=O)CO[C@@H](c1cccc(Cl)c1)[C@@H]1CCCN(C(=O)N[C@H](CNC)CC2CCOCC2)C1 [I*-31a]
> 50 nM
CNC[C@H](CN1CCCCC1=O)NC(=O)N1CCC[C@@H]([C@@H](OCCNC(=O)OC)c2cccc(Cl)c2)C1 [I*-93a]
> 50 nM

Task: Short answer please: IC50, trypsin-activated recombinant human renin (Homo sapiens), entry CNC[C@H](CC1CCC(F)(F)CC1)NC(=O)N1CCC[C@@H]([C@@H](OCCNC(=O)OC)c2cccc(F)c2)C1 [I*-120a]
Output: < 1 nM

Task: Short answer please: IC50, trypsin-activated recombinant human renin (Homo sapiens), entry COC(=O)NCCO[C@@H](c1cc(F)cc(F)c1)[C@@H]1CCCN(C(=O)NC[C@@H](N)C[C@H]2CCCCOC2)C1 [I*-73a]
Output: < 10 nM

Task: Short answer please: IC50, trypsin-activated recombinant human renin (Homo sapiens), entry CNC[C@H](CC1CCCCC1)NC(=O)N1CCC[C@@H]([C@@H](CCCNC(=O)OC)c2cccc(F)c2)C1 [I*-23a]
Output: < 10 nM
